# System: P. aeruginosa
# measurement_description: MIC, modified CLSI broth microdilution in CAA medium without or with […] human serum (Table 4); further: CAA supplemented with 2.5% human serum
# Format: cell-based, Pseudomonas aeruginosa
# measurement_context: CAA supplemented with […] human serum
endpoint_name: CAA/HuS MIC (µg/mL)
Numbers only, in µg/mL.

molecule: GN428: lysin obtained from Escherichia virus CBA120 (SEQ ID NO: 60) (protein, listed as Escherichia virus) MAILKLGNRGSEVKALQQSLNKIGFSLTADGIFGKATENAVKSVQAGAGLVIDGIAGPKTFYAIRNAGDAHQEHLTEADLVDAARELGVELASMKAVNQVESRGTGFTKTGKIKTLFERHIMYKKVTAKFGQARANALYQLYPTLVNPNSGGYIGGDAELERLQGAIALDEDCAYESASYGLFQIMGFNCQICGYSNAKEMFTDFLTGERAHLLAFVKFIKADANMWKALKNKNWAEFARRYNGPAYAKNQYDTKLAAAYKSFC
unit_symbol: µg/mL
CAA/HuS MIC: 125

Below: the item to evaluate.
So what does the record say about CAA/HuS MIC for GN370: lysin-AMP construct: MIDR, FIRL and NPTH moieties N-terminal to GN202 lysin (SEQ ID NO: 44) (protein) MIDRFIRLNPTHGPRRPRRPGRRAPVRTSQRGIDLIKSFEGLRLSAYQDSVGVWTIGYGTTRGVTRYMTITVEQAERMLSNDIQRFEPELDRLAKVPLNQNQWDALMSFVYNLGAANLASSTLLDLLNKGDYQGAADQFPHWVNAGGKRLDGLVKRRAAERALFLEPLS ?
4000
